system: Calu-3; test: cell viability relative to DMSO; higher = less toxic; details: 72 h; 100 nM
RESULT TYPE: cell viability (%)
Answer with a number only, understood to be in %.

Recorded results for 3 molecules are shown here.
C[C@@H](O[C@H]1OCCN(Cc2n[nH]c(=O)[nH]2)[C@H]1c1ccc(F)cc1)c1cc(C(F)(F)F)cc(C(F)(F)F)c1 [aprepitant]    103
CCOC(=O)[C@@H](C)Oc1cccc2c(=O)n(CC(=O)Nc3ccc4c(c3)OCCO4)ccc12    80.8
CN(C)[C@@H](CCOc1cccc2ccccc12)c1ccccc1    105

Just so you know, measured cell viability for O=C(NS(=O)(=O)c1ccc(Br)s1)c1ccc(Cl)cc1Cl came out at 97.6

So for NCCCCCNCC12CC3CC(CC(C3)C1)C2 , the logged cell viability turned out to be 91

Documented cell viability of Cc1ncc(NC(=O)c2ccc(CN3CCN(C)CC3)c(C(F)(F)F)c2)cc1Nc1nccc(-c2cccnc2)n1 : 102

// sample CC1(C)CN2C(CS/C(=N\C3CCCCC3)NC3CCCCC3)=CSC2=N1 , its cell viability was 100

The molecule listed as CNc1ncc2cc(-c3cc(NC(=O)NCCC(C)(C)C)c(F)cc3C)c(C)nc2n1 shows cell viability equal to 106

Entry under test: C[C@@H]1C[C@H]2[C@@H]3C[C@H](F)C4=CC(=O)C=C[C@]4(C)[C@@]3(Cl)[C@@H](O)C[C@]2(C)[C@H]1C(=O)COC(=O)C(C)(C)C [clocortolone-pivalate] . Its cell viability was 102

So, C=CC(=O)Nc1cccc(Nc2nc(Nc3ccc(N4CCN(C(C)=O)CC4)cc3OC)ncc2C(F)(F)F)c1 ? Its cell viability was 88.3

Lab note: measured cell viability of CC(=O)O[C@]1(C(C)=O)CC[C@H]2[C@@H]3C[C@H](C)C4=CC(=O)C=C[C@]4(C)[C@@]3(F)[C@@H](O)C[C@@]21C [fluorometholone-acetate] was 97.8

Please fill in: cell viability reported for O=C(O)COCCN1CCN(C(c2ccccc2)c2ccc(Cl)cc2)CC1 (configuration not stated) = 100

Record NC1CCN(c2nc3c(cc2F)c(=O)c(C(=O)O)cn3-c2ccc(F)cc2F)C1 (configuration not stated) . Reported cell viability: 101

Please fill in: cell viability reported for CS(=O)(=O)Nc1ccc(Cc2noc(-c3ccc4[nH]cc(CCN)c4c3)n2)cc1 = 102

For Cc1[nH]c(/C=C2\C(=O)Nc3ccccc32)c(C)c1CCC(=O)O [orantinib] the molecule record lists cell viability as 107

Looking up CN1CC(=O)N=C1NC(=O)Nc1cccc(Cl)c1 , I see its cell viability listed as 100

Short answer for O=C(Nc1c(Cl)cncc1Cl)c1ccc(OC(F)F)c(OCC2CC2)c1 : cell viability was 94.2
